Biological target: human orexin type 2 receptor (Homo sapiens)
Construct: expressed in transfected cells
Assay: Measurement of orexin type 2 receptor agonist activity (calcium fluorescence, Fluo-4 AM, FDSS)
Format: cell-based
Conditions: test compound 3 μM; CHO cells expressing human OX2 receptor; DMSO = 0%, orexin A (human) = 100%
Text: To obtain a cell clone stably expressing human orexin type 2 receptor, human orexin type 2 receptor cDNA was inserted into pcDNA3.1(+) plasmid vector (Invitrogen), and a plasmid DNA for expression of human orexin type 2 receptor (pcDNA3.1(+)/hOX2R) was cloned. The plasmid DNA was introduced into CHO-K1 cell by an electroporation method, and human orexin type 2 receptor expressing clone cells were obtained by limiting dilution method by using G418 drug resistance as a selection marker. […]
PROPERTY_NAME: OX2R agonist activity (3 μM, %)

The examples below pair each entry with its known result.
[
  {
    "COMPOUND": "CCS(=O)(=O)NC1CCN(C(=O)C2CC2c2ccccc2-c2c(F)cccc2F)C1 (racemic) [Example 27]",
    "VALUE": "98%"
  },
  {
    "COMPOUND": "CCS(=O)(=O)NC1CCCN(C(=O)C2CC2c2ccccc2-c2c(F)cccc2F)C1 (racemic) [Example 28]",
    "VALUE": "103%"
  },
  {
    "COMPOUND": "CCC(NS(C)(=O)=O)[C@@H]1CCN1C(=O)[C@@H]1C[C@@]1(F)c1ccccc1-c1c(F)cccc1F (stereo partly shown) [Example 379]",
    "VALUE": "86%"
  }
]

CS(=O)(=O)NC1CN(C(=O)C2CC2c2ccccc2-c2c(F)cccc2F)CC1(F)F (racemic) [Example 130] has a reported OX2R agonist activity (3 μM, %) of 87%

---

Target: human orexin type 2 receptor (Homo sapiens)
Construct: expressed in transfected cells
Sequence (O43614 1-444): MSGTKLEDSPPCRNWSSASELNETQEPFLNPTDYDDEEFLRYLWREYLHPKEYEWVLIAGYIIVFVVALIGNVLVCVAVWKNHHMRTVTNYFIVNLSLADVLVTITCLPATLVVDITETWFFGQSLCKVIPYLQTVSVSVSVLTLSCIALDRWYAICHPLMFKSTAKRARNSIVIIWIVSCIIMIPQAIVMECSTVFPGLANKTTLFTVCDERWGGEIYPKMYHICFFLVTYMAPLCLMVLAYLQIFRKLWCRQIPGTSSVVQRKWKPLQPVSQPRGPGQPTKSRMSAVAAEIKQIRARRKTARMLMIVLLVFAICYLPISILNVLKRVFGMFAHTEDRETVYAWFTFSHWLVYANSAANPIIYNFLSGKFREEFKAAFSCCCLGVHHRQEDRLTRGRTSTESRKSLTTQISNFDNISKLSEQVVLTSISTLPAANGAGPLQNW
Assay: Measurement of orexin type 2 receptor agonist activity (calcium fluorescence, Fluo-4 AM, FDSS)
Type: cell-based
Settings: test compound 3 μM; CHO cells expressing human OX2 receptor; DMSO = 0%, orexin A (human) = 100%
# key: entry, value: OX2R agonist activity (3 μM, %)
Unit % implied. Number only.

[
  {
    "MOLECULE": "CS(=O)(=O)NC1CCCCN(C(=O)C2CC2c2sccc2-c2c(F)cccc2F)C1 (racemic) [Example 233]",
    "OX2R agonist activity (3 μM, %)": 80
  }
]

CS(=O)(=O)NC1CCCN(C(=O)C2CC2c2c(F)cccc2-c2c(F)cccc2F)CC1 (racemic) [Example 32] has a reported OX2R agonist activity (3 μM, %) of 102

CS(=O)(=O)N[C@@H]1CN(C(=O)[C@@H]2C[C@@]2(F)c2ccccc2-c2c(F)cccc2F)CCC1(F)F [Example 333] has a reported OX2R agonist activity (3 μM, %) of 99

CN(C)S(=O)(=O)N[C@H]1CCN(C(=O)[C@@H]2C[C@H]2c2c(F)cccc2-c2c(F)cccc2F)C1 [Example 309] has a reported OX2R agonist activity (3 μM, %) of 97

O=C(C1CC1c1ccccc1-c1c(F)cccc1F)N1CCCCC(NS(=O)(=O)C2CC2)C1 (racemic) [Example 161] has a reported OX2R agonist activity (3 μM, %) of 99

CS(=O)(=O)N[C@H]1CCN(C(=O)[C@@H]2C[C@H]2c2ccccc2-c2c(F)cccc2F)C1 [Example 23] has a reported OX2R agonist activity (3 μM, %) of 105

CS(=O)(=O)NC1CCCN(C(=O)C2CC2c2cc(F)ccc2-c2c(F)cccc2F)CC1 (racemic) [Example 96] has a reported OX2R agonist activity (3 μM, %) of 62

---

Biological target: human orexin type 2 receptor (Homo sapiens, UniProt O43614)
Construct: expressed in transfected cells
Sequence (O43614 1-444): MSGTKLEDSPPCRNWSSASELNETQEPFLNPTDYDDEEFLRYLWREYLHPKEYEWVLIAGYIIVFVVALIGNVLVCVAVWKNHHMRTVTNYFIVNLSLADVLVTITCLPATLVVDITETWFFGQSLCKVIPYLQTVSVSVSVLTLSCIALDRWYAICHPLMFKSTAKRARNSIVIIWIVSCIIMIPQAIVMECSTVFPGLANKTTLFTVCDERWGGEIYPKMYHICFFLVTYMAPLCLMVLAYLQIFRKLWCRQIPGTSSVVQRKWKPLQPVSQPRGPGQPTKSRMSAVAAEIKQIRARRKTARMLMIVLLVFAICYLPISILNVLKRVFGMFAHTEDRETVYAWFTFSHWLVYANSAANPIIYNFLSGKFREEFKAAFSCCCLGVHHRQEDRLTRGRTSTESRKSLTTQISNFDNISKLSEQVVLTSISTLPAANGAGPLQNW
Assay: Measurement of orexin type 2 receptor agonist activity (calcium fluorescence, Fluo-4 AM, FDSS)
Assay type: cell-based
Settings: test compound 3 μM; CHO cells expressing human OX2 receptor; DMSO = 0%, orexin A (human) = 100%
Criterion: OX2R agonist activity (3 μM, %) meeting or surpassing 80%. Met: Condition met. Not met: Condition not met.

Answered cases to consult:
[
  {
    "MOLECULE": "CS(=O)(=O)NC1CCCN(C(=O)C2CC2c2ccccc2-c2ncccc2F)CC1 (mixture of isomers)",
    "SYSTEM_UNDER_TEST": "human orexin type 2 receptor (Homo sapiens, UniProt O43614)",
    "CLASS": "Condition not met"
  },
  {
    "MOLECULE": "CNS(=O)(=O)NC[C@@H]1CN(C(=O)[C@@H]2C[C@H]2c2ccccc2-c2c(F)cccc2F)CCO1",
    "SYSTEM_UNDER_TEST": "human orexin type 2 receptor (Homo sapiens, UniProt O43614)",
    "CLASS": "Condition met"
  },
  {
    "MOLECULE": "CC1C(C(=O)N2CCC[C@H](NS(C)(=O)=O)CC2)C1c1ccccc1-c1c(F)cccc1F (mixture of isomers)",
    "SYSTEM_UNDER_TEST": "human orexin type 2 receptor (Homo sapiens, UniProt O43614)",
    "CLASS": "Condition met"
  },
  {
    "MOLECULE": "COCC1(C(=O)N2CC[C@H](NS(C)(=O)=O)C2)CC1c1ccccc1-c1c(F)cccc1F (stereo partly drawn)",
    "SYSTEM_UNDER_TEST": "human orexin type 2 receptor (Homo sapiens, UniProt O43614)",
    "CLASS": "Condition met"
  }
]

Does OX2R agonist activity (3 μM, %) meet or surpass 80% for CC(NS(C)(=O)=O)C12CC(C1)N(C(=O)[C@@H]1C[C@@]1(F)c1ccccc1-c1c(F)cccc1F)C2 (stereo partly drawn) ? Condition not met

Does OX2R agonist activity (3 μM, %) meet or surpass 80% for `CC(C)S(=O)(=O)N[C@@H](C)[C@@H]1CCN1C(=O)[C@@H]1C[C@@]1(F)c1ccccc1-c1c(F)cccc1F` ? Condition met

Does OX2R agonist activity (3 μM, %) meet or surpass 80% for CS(=O)(=O)NC1CCN(C(=O)C2CC2c2ccccc2-c2cc(F)ccc2F)C1 (racemic) ? Condition not met

Does OX2R agonist activity (3 μM, %) meet or surpass 80% for `CCS(=O)(=O)N[C@H]1CCCN(C(=O)[C@@H]2C[C@H]2c2c(F)cccc2-c2c(F)cccc2F)C1` ? Condition met

Does OX2R agonist activity (3 μM, %) meet or surpass 80% for CC1CC(NS(C)(=O)=O)CN(C(=O)C2CC2c2ccccc2-c2c(F)cccc2F)C1 (racemic) ? Condition met

Does OX2R agonist activity (3 μM, %) meet or surpass 80% for `CS(=O)(=O)NC[C@@H]1[C@H](F)CN1C(=O)[C@@H]1C[C@@]1(F)c1ccc(F)cc1-c1c(F)cccc1F` ? Condition met
